src = PubChem BioAssay (NCI)

Listing of recorded growth inhibition by entry.
# experimental_details: NCI Yeast Anticancer Drug Screen. Data for the sgs1 mgt1 strain (AID 161);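 also: 0% = growth of cultures given vehicle only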
# measurement_conditions: S. cerevisiae sgs1 mgt1 strain, at 50.0 µM, active compounds read high
About 79,000 compounds went through this panel and 15% of them were active in at least one assay; those are over-represented in the sample as a whole.
parameter: growth inhibition (%)

> print(dat)
                                    compound  reported
 1    COC(=O)c1nc2n[nH]c(N)c2c2c1CCCCCCCCCC2     -5.65
 2  CCOC1=NC(C)C(C)N1 (configuration not stated)     -13.4
 3                         CCc1ccc2ccccc2c1N       6.1
 4            COc1c(Cl)c(Cl)c2ncc(Cl)cc2c1Cl      -3.5
 5  CN(C)CCN=C1Nc2ccccc2C(=S)N2CSCC12 (configuration not stated)     -10.4
 6   NC(=O)c1cc(OCc2ccccc2)nc2nc(Cl)nc(N)c12      3.35
 7  Cc1ccc(S(=O)(=O)N/N=C2/CC3CCC4CC2CC34)cc1 (configuration not stated)     -35.2
 8         COc1ccccc1/C(=N\OCCC(=O)O)c1cccs1      5.95
 9                         CC(=O)CSCc1ccccn1     -18.6
10  COc1cc2c(c(OC)c1OC)-c1ccc(S(=O)(=O)Cc3ccccc3)c(=O)cc1C(NC(C)=O)CC2 (configuration not stated)       9.8
11  CCCCC/C(=C\c1ccccc1)C1OCC(COC(C)=O)O1 (configuration not stated)     -2.25
12  COc1cc(Br)c(CC2c3cc(OC)c(OC)cc3CCN2C)cc1OC (configuration not stated)     -9.75
